- Method summary: Protease stability in simulated intestinal fluids (FaSSIF) (Table 7)
- Format: in vitro ADME
- Reported conditions: fassif with pancreatin, 60 min, 37° C., read-out: Remaining percentage of peptide compound, FaSSIF 60 (min)
Numbered stars: 1 amine (or outer) side, 2 acyl side, 3 side chain; on linkers, the order of the positions; unused ones are H or OH. Bridge positions count the residues as written; N and C are the ends. Square brackets hold non-standard residues; d marks the D form. Peptide text beside a SMILES is read from it. * marks the point of attachment. Trp(7-Me) = Cc1cccc2c(C[C@H](N)C(=O)O)c[nH]c12; 2Nal = N[C@@H](Cc1ccc2ccccc2c1)C(=O)O; Suberoyl = O=C(CCCCCCC(=O)[*:2])[*:1]; 3Pal = N[C@@H](Cc1cccnc1)C(=O)O; Thp = NC1(C(=O)O)CCOCC1; Me2NCH2CH2 = CN(C)CC*; Aib = CC(C)(N)C(=O)O; Sar = CNCC(=O)O
Measured metric: remaining at 1 h, 1 µM

**Query** What value of remaining at 1 h, 1 µM has been reported for the following compound? Cc1cccc2c(C[C@@H]3NC(=O)CCCCCCC(=O)NCCCC[C@@H](C(=O)N[C@@H](CC(N)=O)C(=O)N[C@@H](Cc4cccnc4)C(=O)N(C)CC(N)=O)NC(=O)C(C)(C)NC(=O)[C@H](Cc4ccc5ccccc5c4)NC(=O)[C@H](Cc4ccc(OCCN(C)C)cc4)NC(=O)C4(CCOCC4)NC(=O)[C@H](CCC(N)=O)NC3=O)c[nH]c12 [compound 12] ([Trp(7-Me)]Q[Thp]Y(Me2NCH2CH2)[2Nal][Aib]KN[3Pal][Sar]-NH2; linker N-7 via Suberoyl)
**Result** 79%

----------
- Method summary: Solubility of peptide compounds in buffer formulations (Table 5)
- Type: physicochemical
- Reported conditions: aqueous buffer; 50 mM phosphate buffer pH 6.5, 2 h agitation, target 1 mg/ml; read-out: Solubility, Buffer pH 6.5
Bridge positions count the residues as written; N and C are the ends. Square brackets hold non-standard residues; d marks the D form. Peptide text beside a SMILES is read from it. * marks the point of attachment. Trp(7-Me) = Cc1cccc2c(C[C@H](N)C(=O)O)c[nH]c12; αMeLys(Me2) = CN(C)CCCC[C@](C)(N)C(=O)O; 2Nal = N[C@@H](Cc1ccc2ccccc2c1)C(=O)O; 3Pal = N[C@@H](Cc1cccnc1)C(=O)O; Aun = NCCCCCCCCCCC(=O)O; Thp = NC1(C(=O)O)CCOCC1; Me2NCH2CH2 = CN(C)CC*; Sar = CNCC(=O)O
Measured metric: solubility at 2 h

**Query** What value of solubility at 2 h has been reported for the following compound? CC(=O)NCCCC[C@@H]1NC(=O)[C@H](Cc2c[nH]c3c(C)cccc23)NC(=O)CCCCCCCCCCNC(=O)CC[C@@H](C(=O)N[C@@H](CC(N)=O)C(=O)N[C@@H](Cc2cccnc2)C(=O)N(C)CC(N)=O)NC(=O)[C@](C)(CCCCN(C)C)NC(=O)[C@H](Cc2ccc3ccccc3c2)NC(=O)[C@H](Cc2ccc(OCCN(C)C)cc2)NC(=O)C2(CCOCC2)NC1=O [compound 21] ([Aun][Trp(7-Me)]K(Ac)[Thp]Y(Me2NCH2CH2)[2Nal][αMeLys(Me2)]EN[3Pal][Sar]-NH2; lactam N-8)
**Result** ≥ 1170 µg/mL
